- measurement-target: human glucagon receptor (human) (UniProt P47871)
- Sequence (P47871 26-477): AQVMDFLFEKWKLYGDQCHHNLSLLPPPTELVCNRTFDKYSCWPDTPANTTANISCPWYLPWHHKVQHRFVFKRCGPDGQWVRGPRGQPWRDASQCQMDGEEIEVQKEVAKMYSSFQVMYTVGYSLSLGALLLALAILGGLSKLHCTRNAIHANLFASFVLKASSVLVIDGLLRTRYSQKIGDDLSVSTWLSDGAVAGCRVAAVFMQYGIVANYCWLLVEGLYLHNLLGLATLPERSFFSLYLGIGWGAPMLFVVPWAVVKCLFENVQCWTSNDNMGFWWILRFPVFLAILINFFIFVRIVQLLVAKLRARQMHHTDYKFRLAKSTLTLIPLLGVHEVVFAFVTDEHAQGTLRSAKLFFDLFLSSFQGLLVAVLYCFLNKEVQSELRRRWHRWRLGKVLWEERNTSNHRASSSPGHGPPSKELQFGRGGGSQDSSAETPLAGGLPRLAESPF
- assay-procedure: cell-based or functional assay
experimental-endpoint: cAMP Rel EC50, nM (in the presence of 1% HSA) (nM)
Provide only the numeric value, understood in nM.

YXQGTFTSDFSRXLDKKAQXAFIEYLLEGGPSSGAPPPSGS (synthetic construct; SITE 2: note = 2-Aminoisobutyric Acid; SITE 13: note = alpha-methyl-leucine; SITE 17: note = Lysine is chemically modified through conjugation of the epsilon-amino group of the Lysine side chain with (2-[2-(2-Amino-ethoxy)-ethoxy]-acetyl)-(gamma-Glu)-CO-(CH2) 16-CO2H; SITE 20: n) [Example 143] = 1690

Read the entry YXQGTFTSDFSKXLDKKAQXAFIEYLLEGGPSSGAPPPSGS (synthetic construct; SITE 2: note = 2-Aminoisobutyric Acid; SITE 13: note = alpha-methyl-leucine; SITE 17: note = Lysine is chemically modified through conjugation of the epsilon-amino group of the Lysine side chain with (2-[2-(2-Amino-ethoxy)-ethoxy]-acetyl)-(gamma-Glu)-CO-(CH2) 16-CO2H; SITE 20: n) [Example 141] and write its reported cAMP Rel EC50, nM (in the presence of 1% HSA).
877

Consider the binder YXQGTFTSDFSXXLDKKAQXAFIEWLLEGGPSSGAPXPSGE (synthetic construct; SITE 2: note = 2-Aminoisobutyric Acid; SITE 12: note = L-ornithine; SITE 13: note = alpha-methyl-leucine; SITE 17: note = Lysine is chemically modified through conjugation of the epsilon-amino group of the Lysine side chain with (2-[2-(2-Amino-ethoxy)-ethoxy]-acetyl)-(gamma-Glu)) [Example 137] and give its recorded cAMP Rel EC50, nM (in the presence of 1% HSA).
905
